molecular target: UniProt:P9WGR1; experiment: Binding affinity to Mycobacterium tuberculosis InhA in presence of NADH by surface plasmon resonance assay
measured quantity: pKd
Reminder that pKd means the negative base-10 logarithm of the concentration expressed in mol/L.

Study these solved cases before continuing.
CNC(=O)c1cnc(NC2CCN(c3ccccn3)CC2)c(NCc2ccc(F)c(Oc3ccccc3)c2)c1	6.60
CNC(=O)CN(C(=O)Cc1ccc(-n2cccn2)cc1)C1CCN(c2ccccn2)CC1	7.43

IN: Provide only the value of recorded pKd for CNC(=O)CN1CCN(C(=O)[C@H]2CC[C@@H](NC(=O)Cc3sc4ccccc4c3C)CC2)[C@@H](Cc2ccccc2)C1=O
OUT: 6.47

IN: Write down pKd measured for item CNC(=O)[C@@H]1C[C@H](NC(=O)[C@@H](NC(=O)c2ccc(Cn3cccn3)cc2)[C@@H](C)OC(C)(C)C)CN1C(=O)c1ccccc1
OUT: 7.26

IN: Specify reported pKd for the molecule shown: CNC(=O)CN(Cc1ccc(F)cc1)C(=O)[C@H]1CC[C@@H](NC(=O)Cc2sc3ccccc3c2C)CC1
OUT: 7.03

---

Target: UniProt P9WGR1
Sequence (P9WGR1 whole entry): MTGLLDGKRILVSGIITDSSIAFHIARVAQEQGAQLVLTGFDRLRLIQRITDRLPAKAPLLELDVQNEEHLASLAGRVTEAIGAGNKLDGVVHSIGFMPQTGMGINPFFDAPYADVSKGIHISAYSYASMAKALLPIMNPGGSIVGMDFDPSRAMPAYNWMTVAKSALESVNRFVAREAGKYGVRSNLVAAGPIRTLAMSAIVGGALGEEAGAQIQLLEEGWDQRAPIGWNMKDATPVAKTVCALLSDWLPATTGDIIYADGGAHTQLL
Test: Binding affinity to Mycobacterium tuberculosis InhA in presence of NAD+
measured quantity: Kd (µM)
Report only the number, with the unit µM understood.

IN: Could you please provide reported Kd for Cc1csc(C(C)(O)c2nnc(Nc3ccn(Cc4c(F)cccc4F)n3)s2)n1 (stereo unspecified) ? Thanks!
OUT: 9.3

---

biological target: Enoyl-[acyl-carrier-protein] reductase [NADH] (Mycobacterium tuberculosis); test: Binding affinity to Mycobacterium tuberculosis InhA in presence of NADH
measured quantity: pKd
// field semantics: pKd = negative decimal log of concentration (mol/L)

IN: Please report pKd with Enoyl-[acyl-carrier-protein] reductase [NADH] (Mycobacterium tuberculosis) for item Cc1csc(C(C)(O)c2nnc(Nc3ccn(Cc4c(F)cccc4F)n3)s2)n1 (stereo unspecified) .
OUT: 7.94

---

Catalogue of pKi values
target: Enoyl-[acyl-carrier-protein] reductase [NADH] (Mycobacterium tuberculosis, UniProt P9WGR1); assay: Inhibition of Mycobacterium tuberculosis InhA
Remember, pKi is on a log scale: it is -log10 of the molar concentration.

The following molecules have reported results that may help.
CCCCCc1ccc(Oc2ccc(Cl)cc2Cl)c(O)c1	7.93
CCCc1cc(C(=O)c2cc[n+]([C@@H]3O[C@H](COP(=O)(O)OP(=O)(O)OC[C@H]4O[C@@H](n5cnc6c(N)ncnc65)[C@H](O)[C@@H]4O)[C@@H](O)[C@H]3O)cc2C(N)=O)ccn1	8.70
NC(=O)c1c[n+]([C@@H]2O[C@H](COP(=O)(O)OP(=O)(O)OC[C@H]3O[C@@H](n4cnc5c(N)ncnc54)[C@H](OP(=O)(O)O)[C@@H]3O)[C@@H](O)[C@H]2O)ccc1C(=O)c1ccncc1	6.89

IN: Give reported pKi value for Cc1ccn(C(C)c2nnc(Nc3ccn(Cc4c(F)cccc4Cl)n3)s2)n1 (centres undefined)
OUT: 8.70

---

Measured pIC50 accompanies every entry in the list below.
Molecular target: Enoyl-[acyl-carrier-protein] reductase [NADH] (Mycobacterium tuberculosis, UniProt P9WGR1)
Sequence (P9WGR1 whole entry): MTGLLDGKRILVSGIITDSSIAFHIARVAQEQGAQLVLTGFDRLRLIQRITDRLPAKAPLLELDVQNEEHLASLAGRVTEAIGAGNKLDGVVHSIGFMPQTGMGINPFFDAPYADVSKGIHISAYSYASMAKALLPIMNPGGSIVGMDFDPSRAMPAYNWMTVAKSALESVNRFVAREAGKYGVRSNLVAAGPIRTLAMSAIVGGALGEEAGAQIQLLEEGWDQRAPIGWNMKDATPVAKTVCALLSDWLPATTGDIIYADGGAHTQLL
Experiment: Inhibition of Mycobacterium tuberculosis InhA using dodecenoyl-CoA as substrate in presence of NADH by fluorimetric analysis
The quantity pIC50 is defined as the negative base-10 logarithm of the molar concentration.

Cc1csc(C(C)(O)c2n[nH]/c(=N\C(=O)c3c(F)cccc3F)s2)n1 (configuration not stated)	6.70

Okay, now this compound:
IN: Tell us which pIC50 value is on record for Cc1csc(C(C)(O)c2nnc(Nc3ccn(Cc4c(F)cccc4F)n3)s2)n1 (configuration not stated)
OUT: 8.52

---

system: Mycobacterium tuberculosis; test: Antimycobacterial activity against Mycobacterium tuberculosis; assay type: functional
measured quantity: MIC50 (µM)
The reply should contain only the number, in µM.

Some entries whose results are on file:
Cc1csc(C(C)(O)c2nnc(Nc3ccn(Cc4c(F)cccc4F)n3)s2)n1 (stereo not drawn)	0.19
CCCCCCc1ccc(Oc2ccccc2C)c(O)c1	10.9
Oc1cc(CCc2ccccc2)ccc1Oc1ccc(Cl)cc1Cl	52
CC1(C)CCC(Cc2cc(O)c(-c3ccccc3)c(=O)[nH]2)CC1	0.08
CCCc1cc(C(=O)c2cc[n+]([C@@H]3O[C@H](COP(=O)(O)OP(=O)(O)OC[C@H]4O[C@@H](n5cnc6c(N)ncnc65)[C@H](O)[C@@H]4O)[C@@H](O)[C@H]3O)cc2C(N)=O)ccn1	2.7

IN: For the compound Oc1cc(Cc2ccccc2)ccc1Oc1ccc(Cl)cc1Cl , give its measured MIC50 value.
OUT: 27

IN: For the compound Cc1csc(C(C)(O)c2n[nH]/c(=N\C(=O)c3c(F)cccc3F)s2)n1 (stereo not drawn) , report MIC50.
OUT: 3.75

IN: Supply MIC50 value. Item: CCc1cc(C(=O)c2cc[n+]([C@@H]3O[C@H](COP(=O)(O)OP(=O)(O)OC[C@H]4O[C@@H](n5cnc6c(N)ncnc65)[C@H](O)[C@@H]4O)[C@@H](O)[C@H]3O)cc2C(N)=O)ccn1
OUT: 3

---

List of pIC50 tested on Enoyl-[acyl-carrier-protein] reductase [NADH] (Mycobacterium tuberculosis, UniProt P9WGR1).
pIC50 (log units): -log10 of the concentration in mol/L.

CNC(=O)CN(C(=O)Cc1ccc(-n2cccn2)cc1)C1CCN(c2ccccn2)CC1	5.23
CNC(=O)CN(Cc1ccc(F)cc1)C(=O)[C@H]1CC[C@@H](NC(=O)Cc2sc3ccccc3c2C)CC1	6.22

IN: Report its pIC50 with Enoyl-[acyl-carrier-protein] reductase [NADH] (Mycobacterium tuberculosis, UniProt P9WGR1) as the test system: CNC(=O)CN1CCN(C(=O)[C@H]2CC[C@@H](NC(=O)Cc3sc4ccccc4c3C)CC2)[C@@H](Cc2ccccc2)C1=O
OUT: 7.19

IN: State recorded pIC50 with Enoyl-[acyl-carrier-protein] reductase [NADH] (Mycobacterium tuberculosis, UniProt P9WGR1), entry CNC(=O)c1cnc(NC2CCN(c3ccccn3)CC2)c(NCc2ccc(F)c(Oc3ccccc3)c2)c1 , no comment.
OUT: 6.53

IN: GET pIC50 where system = Enoyl-[acyl-carrier-protein] reductase [NADH] (Mycobacterium tuberculosis, UniProt P9WGR1) and item = CNC(=O)[C@@H]1C[C@H](NC(=O)[C@@H](NC(=O)c2ccc(Cn3cccn3)cc2)[C@@H](C)OC(C)(C)C)CN1C(=O)c1ccccc1
OUT: 4.92

---

molecular target: Enoyl-[acyl-carrier-protein] reductase [NADH] (Mycobacterium tuberculosis); test: Binding affinity to Mycobacterium tuberculosis InhA in presence of TCEP and NADH by isothermal titration calorimetry
measured quantity: Kd
Please state the number and follow it with the unit.

IN: Report Kd, nothing else, for this compound: O=c1[nH]c(CC2CCCCC2)cc(O)c1-c1ccccc1
OUT: 560 nM

---

molecular target: Enoyl-[acyl-carrier-protein] reductase [NADH] (Mycobacterium tuberculosis); test: Inhibition of Mycobacterium tuberculosis InhA
measured quantity: IC50 (nM)
Write the answer as a number in nM, unit excluded.

Oc1cc(CCc2ccccc2)ccc1Oc1ccc(Cl)cc1Cl	21
CCCCCCc1ccc(Oc2ccccc2Br)c(O)c1	10
Oc1cc(CC2CCCCC2)ccc1Oc1ccc(Cl)cc1Cl	110

IN: Give IC50 only, for Oc1cc(Cc2ccccc2)ccc1Oc1ccc(Cl)cc1Cl , using Enoyl-[acyl-carrier-protein] reductase [NADH] (Mycobacterium tuberculosis) data.
OUT: 51

---

Measured IC50 values are reported for all entries that follow.
biological target: Enoyl-[acyl-carrier-protein] reductase [NADH] (Mycobacterium tuberculosis); assay: Inhibition of Mycobacterium tuberculosis InhA using trans-2-dodecenoyl-CoA as substrate
// note: answer is a bare numeric in nM

CC1(C)CCC(Cc2cc(O)c(-c3ccccc3)c(=O)[nH]2)CC1	570

Consider now this further compound.
IN: Please look at this compound and report its IC50: O=c1[nH]c(CC2CCCCC2)cc(O)c1-c1ccccc1
OUT: 590

Every entry's value here was drawn from ChEMBL document CHEMBL4145513.
